Tested on: A. baumannii ATCC19606
Test: microbe, parasite or virus in culture
Details: supplement CSV; 12.5% MH pH 7.4
No end group written: not given here.
// reported MIC A. baumannii ATCC19606 for each item listed

Worked cases, MIC A. baumannii ATCC19606 given:
{"substance": "VDKPPYLPRPRPPRRIYNR [sr10Cterm-Onc] (VDKPPYLPRPRPPRRIYNR-NH2; also: residues 10-19 stereorandomized (1:1 L/D mixture))", "target.under.test": "A. baumannii ATCC19606", "MIC A. baumannii ATCC19606": "4 µg/mL"}
{"substance": "VDKPPYLPRPRPPRRIYNR [sr5Cterm-Onc] (VDKPPYLPRPRPPRRIYNR-NH2; also: residues 15-19 stereorandomized (1:1 L/D mixture))", "target.under.test": "A. baumannii ATCC19606", "MIC A. baumannii ATCC19606": "4 µg/mL"}
{"substance": "VDKPPYLPRPRPPRRIYNR [srP45-Onc] (VDKPPYLPRPRPPRRIYNR-NH2; also: residues 4-5 (Pro-Pro) stereorandomized (1:1 L/D mixture))", "target.under.test": "A. baumannii ATCC19606", "MIC A. baumannii ATCC19606": "8 µg/mL"}

Value lookup for MIC A. baumannii ATCC19606; key = VDKPPYLPRPRPPRRIYNR [sr14Nterm-Onc] (VDKPPYLPRPRPPRRIYNR-NH2; also: residues 1-14 stereorandomized (1:1 L/D mixture))
16 µg/mL

Value lookup for MIC A. baumannii ATCC19606; key = VDKPPYLPRPRPPRRIYNR [sr3Nterm-Onc] (VDKPPYLPRPRPPRRIYNR-NH2; also: residues 1-3 stereorandomized (1:1 L/D mixture))
8 µg/mL

Value lookup for MIC A. baumannii ATCC19606; key = VDKPPYLPRPRPPRRIYNR-NH2 [L-Onc, reference compound]
4 µg/mL

----------
System: P. aeruginosa PA14 4.18 (pmrB)
Conditions: polymyxin B resistant strain; full MHB pH 7.4; 16–20 h at 37 °C
No end group written: not given here.
// reported MIC P. aeruginosa PA14 4.18 (pmrB), full MHB for each item listed
# output: bare number, implied unit µg/mL

Worked cases, MIC P. aeruginosa PA14 4.18 (pmrB), full MHB given:
{"substance": "VDKPPYLPRPRPPRRIYNR [sr8Cterm-Onc] (VDKPPYLPRPRPPRRIYNR-NH2; also: residues 12-19 stereorandomized (1:1 L/D mixture))", "obs.value": 64}
{"substance": "VDKPPYLPRPRPPRRIYNR [sr9Cterm-Onc] (VDKPPYLPRPRPPRRIYNR-NH2; also: residues 11-19 stereorandomized (1:1 L/D mixture))", "obs.value": 64}

Moving on to the next substance.
Value lookup for MIC P. aeruginosa PA14 4.18 (pmrB), full MHB; key = VDKPPYLPRPRPPRRIYNR [sr5Cterm-Onc] (VDKPPYLPRPRPPRRIYNR-NH2; also: residues 15-19 stereorandomized (1:1 L/D mixture))
64

----------
Tested on: S. aureus COL (MRSA)
Experiment: microbe, parasite or virus in culture
Conditions: supplement CSV; 12.5% MH pH 7.4
No end group written: not given here.
readout.label: MIC S. aureus COL (MRSA)

Worked cases, MIC S. aureus COL (MRSA) given:
{"substance": "VDKPPYLPRPRPPRRIYNR [sr5Cterm-Onc] (VDKPPYLPRPRPPRRIYNR-NH2; also: residues 15-19 stereorandomized (1:1 L/D mixture))", "target.under.test": "S. aureus COL (MRSA)", "MIC S. aureus COL (MRSA)": ">16 µg/mL"}
{"substance": "VDKPPYLPRPRPPRRIYNR-NH2 [L-Onc, reference compound]", "target.under.test": "S. aureus COL (MRSA)", "MIC S. aureus COL (MRSA)": "32 µg/mL"}
{"substance": "VDKPPYLPRPRPPRRIYNR [sr-Onc] (VDKPPYLPRPRPPRRIYNR-NH2; also: all 19 residues stereorandomized (1:1 L/D mixture))", "target.under.test": "S. aureus COL (MRSA)", "MIC S. aureus COL (MRSA)": ">64 µg/mL"}
{"substance": "VDKPPYLPRPRPPRRIYNR [sr6Cterm-Onc] (VDKPPYLPRPRPPRRIYNR-NH2; also: residues 14-19 stereorandomized (1:1 L/D mixture))", "target.under.test": "S. aureus COL (MRSA)", "MIC S. aureus COL (MRSA)": ">16 µg/mL"}
{"substance": "VDKPPYLPRPRPPRRIYNR [sr7Cterm-Onc] (VDKPPYLPRPRPPRRIYNR-NH2; also: residues 13-19 stereorandomized (1:1 L/D mixture))", "target.under.test": "S. aureus COL (MRSA)", "MIC S. aureus COL (MRSA)": ">16 µg/mL"}

Moving on to the next substance.
Value lookup for MIC S. aureus COL (MRSA); key = VDKPPYLPRPRPPRRIYNR [sr3Nterm-Onc] (VDKPPYLPRPRPPRRIYNR-NH2; also: residues 1-3 stereorandomized (1:1 L/D mixture))
64 µg/mL
